Entries below carry reported IC50 on Acetylcholinesterase (Homo sapiens, UniProt P22303).
Sequence (P22303 whole entry): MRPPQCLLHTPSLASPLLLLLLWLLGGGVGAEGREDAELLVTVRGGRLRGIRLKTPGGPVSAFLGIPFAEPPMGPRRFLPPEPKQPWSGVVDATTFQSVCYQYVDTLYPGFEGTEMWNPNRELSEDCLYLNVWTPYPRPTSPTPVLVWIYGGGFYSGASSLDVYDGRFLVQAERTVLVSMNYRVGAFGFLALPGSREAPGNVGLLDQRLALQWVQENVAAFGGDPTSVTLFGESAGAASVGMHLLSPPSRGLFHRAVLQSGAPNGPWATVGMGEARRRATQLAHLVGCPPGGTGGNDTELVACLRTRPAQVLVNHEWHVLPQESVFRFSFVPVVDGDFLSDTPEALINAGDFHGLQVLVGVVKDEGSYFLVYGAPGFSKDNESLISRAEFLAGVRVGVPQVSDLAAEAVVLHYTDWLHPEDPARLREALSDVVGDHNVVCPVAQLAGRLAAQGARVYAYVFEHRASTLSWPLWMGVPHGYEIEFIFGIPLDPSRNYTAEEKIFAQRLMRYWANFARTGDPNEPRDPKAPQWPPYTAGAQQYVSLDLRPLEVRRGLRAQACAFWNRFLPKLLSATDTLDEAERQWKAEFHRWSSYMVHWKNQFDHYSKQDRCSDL
A bare number is not enough; add the unit after it.

Recorded IC50, per entry:
>>> reported("CC1=CC2Cc3nc4cc(Cl)ccc4c(NCCCN(C)CCCNc4c5c(nc6cc(Cl)ccc46)CCCC5)c3C(C1)C2.Cl (racemic)")
"0.31 nM"
>>> reported("CC1=CC2Cc3nc4cc(Cl)ccc4c(NCCCCCCCCNc4c5c(nc6ccccc46)CCCC5)c3C(C1)C2.Cl (racemic)")
"1.38 nM"
>>> reported("CC1=CC2Cc3nc4cc(Cl)ccc4c(NCCCCCCCCCNc4c5c(nc6cc(Cl)ccc46)CCCC5)c3C(C1)C2.Cl.Cl.Cl.Cl (racemic)")
"3.26 nM"
>>> reported("CC1=C[C@@H]2Cc3nc4cc(Cl)ccc4c(NCCCCCCCNc4c5c(nc6cc(Cl)ccc46)CCCC5)c3[C@H](C1)C2")
"2.04 nM"
>>> reported("CC1=CC2Cc3nc4cc(Cl)ccc4c(NCCCCCCNc4c5c(nc6ccccc46)CCCC5)c3C(C1)C2.Cl (racemic)")
"0.89 nM"
>>> reported("CC1=C[C@H]2Cc3nc4cc(Cl)ccc4c(NCCCCCCCNc4c5c(nc6ccccc46)CCCC5)c3[C@@H](C1)C2")
"6.84 nM"

Which measured IC50 belongs to `CC1=C[C@H]2Cc3nc4cc(Cl)ccc4c(NCCCCCCCNc4c5c(nc6cc(Cl)ccc46)CCCC5)c3[C@@H](C1)C2` , tested on Acetylcholinesterase (Homo sapiens, UniProt P22303)?
11.5 nM

Which measured IC50 belongs to CC1=CC2Cc3nc4cc(Cl)ccc4c(NCCCCCCCCCCNc4c5c(nc6cc(Cl)ccc46)CCCC5)c3C(C1)C2.Cl.Cl.Cl.Cl (racemic) , tested on Acetylcholinesterase (Homo sapiens, UniProt P22303)?
9.09 nM

Which measured IC50 belongs to CC1=CC2Cc3nc4cc(Cl)ccc4c(NCCCCCCCCNc4c5c(nc6cc(Cl)ccc46)CCCC5)c3C(C1)C2.Cl (racemic) , tested on Acetylcholinesterase (Homo sapiens, UniProt P22303)?
1.32 nM

Which measured IC50 belongs to `CC1=C[C@@H]2Cc3nc4cc(Cl)ccc4c(NCCCCCCCNc4c5c(nc6ccccc46)CCCC5)c3[C@H](C1)C2` , tested on Acetylcholinesterase (Homo sapiens, UniProt P22303)?
1.33 nM

----------
experiment: in vitro; settings: pig, PAMPA
Description: Permeability across porcine brain lipid layer after 240 mins by PAMPA-BBB assay
Form field: Papp at 4 h (one value per entry).
Write it as a number; the unit nm/s goes unstated.

Recorded Papp at 4 h, per entry:
>>> reported("CC1=CC2Cc3nc4cc(Cl)ccc4c(NCCCCCCCCNc4c5c(nc6ccccc46)CCCC5)c3C(C1)C2.Cl (racemic)")
102
>>> reported("CC1=CC2Cc3nc4cc(Cl)ccc4c(NCCCCCCCNc4c5c(nc6cc(Cl)ccc46)CCCC5)c3C(C1)C2.Cl.Cl.Cl.Cl (racemic)")
209
>>> reported("CC1=CC2Cc3nc4cc(Cl)ccc4c(NCCCCCCCCCNc4c5c(nc6ccccc46)CCCC5)c3C(C1)C2.Cl.Cl.Cl (racemic)")
60

What value of measured Papp at 4 h is listed for CC1=CC2Cc3nc4cc(Cl)ccc4c(NCCCCCCNc4c5c(nc6ccccc46)CCCC5)c3C(C1)C2.Cl (racemic) ?
107

What value of measured Papp at 4 h is listed for CC1=CC2Cc3nc4cc(Cl)ccc4c(NCCCCCCCNc4c5c(nc6ccccc46)CCCC5)c3C(C1)C2.Cl.Cl.Cl (racemic) ?
125

What value of measured Papp at 4 h is listed for CC1=CC2Cc3nc4cc(Cl)ccc4c(NCCCCCCCCCCNc4c5c(nc6ccccc46)CCCC5)c3C(C1)C2.Cl.Cl.Cl (racemic) ?
163

What value of measured Papp at 4 h is listed for CC1=CC2Cc3nc4cc(Cl)ccc4c(NCCCCCCCCNc4c5c(nc6cc(Cl)ccc46)CCCC5)c3C(C1)C2.Cl (racemic) ?
211
